- System: MDA-MB-231
- procedure summary: Cytotoxicity against human MDA-MB-231 cells assessed as cell growth inhibition
- Assay type: functional, cell-based
endpoint name: IC50
Field note: include the unit after the figure.

# lookup: IC50 of `Cc1cc(=O)n(C2CCCC2)c2nc(NCCC3CCN(C(=O)c4cc(Cc5n[nH]c(=O)c6ccccc56)ccc4F)CC3)ncc12`
1960 nM

* * *

- system name: Cyclin-dependent kinase 2 (Homo sapiens, UniProt P24941)
- procedure summary: Inhibition of CDK2 (unknown origin) by luminescence kinase assay
endpoint name: IC50 (nM)
One number for each entry, in nM.

// lookup IC50 | system=Cyclin-dependent kinase 2 (Homo sapiens, UniProt P24941) | key= `O=C(c1ccc2ccccc2c1)c1cn(-c2ccccc2)nc1C1=Nn2c(S)nnc2SC1`
89.6

From: ChEMBL document CHEMBL6134823
